# System: Saccharomyces cerevisiae;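 further: PSI is a weighted mean of sequencing reads over stability bins, variants kept only with over 10 reads, mCherry proximal and sfGFP distal, peptide attached via GGGS linker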
# protocol details: protein stability index of tFT-peptide fusion (C-terminal peptide) (PSI (0-1 scale)); higher = more stable (slower turnover)
# test parameters: genetic background: wild type; temperature: 30 C
observation type: protein stability index
// print number alone

[
  {
    "ordered residues": "EENLLYLLYVEC",
    "protein stability index": 0.544
  },
  {
    "ordered residues": "VSEEFAGSGTKS",
    "protein stability index": 0.67
  },
  {
    "ordered residues": "EGASLRWARLRI",
    "protein stability index": 0.679
  },
  {
    "ordered residues": "FGVSIGELAGRH",
    "protein stability index": 0.686
  }
]

Bench note, Saccharomyces cerevisiae: QYKKKEKKQNRT , protein stability index reads 0.624

Measured on Saccharomyces cerevisiae, GGMGLWCCVSVG has a documented protein stability index of 0.527

Given the sequence SSTFPRPSLRPV and test system Saccharomyces cerevisiae, the measured protein stability index is 0.64

Known value: Saccharomyces cerevisiae protein stability index of the sequence GTDRRGRDAPHS equals 0.586
